Provenance of the data: PubChem BioAssay AID1259407

- Tested on: CCRIS mutagenicity, Ames/micronucleus/aberration tests
- protocol_description: CCRIS mutagenicity studies
- test_context: Test System: AMES SALMONELLA TYPHIMURIUM; Strain/Indicator: TA98; Metabolic Activation: RAT, LIVER, S-9, AROCLOR 1254; Method: STANDARD PLATE
Activity calls are given as the source filed them. How the calls were made is not given here.
Please state which outcome applies, choosing from class 1 = active, class 0 = inactive

[
  {
    "compound": "Nc1ccc(N)c2c1C(=O)c1c(N)ccc(N)c1C2=O",
    "category_label": "class 0"
  },
  {
    "compound": "COc1ccc(S(=O)(=O)n2ncc(Cl)c(Cl)c2=O)cc1",
    "category_label": "class 0"
  },
  {
    "compound": "CC1=C[C@H]2O[C@@H]3[C@H](O)C[C@](C)([C@@]2(CO)[C@H](O)C1=O)[C@]31CO1",
    "category_label": "class 0"
  },
  {
    "compound": "CC(=O)Nc1cc(O)c2ccc3cccc4ccc1c2c34",
    "category_label": "class 1"
  }
]

Prompt: Which outcome was entered for the compound COCCCN in this test?
Completion: class 0
